target: XIAP-BIR3 (Homo sapiens (Human)); test: BIR binding assay (FRET competition), XIAP BIR3
Sequence (P98170 241-356): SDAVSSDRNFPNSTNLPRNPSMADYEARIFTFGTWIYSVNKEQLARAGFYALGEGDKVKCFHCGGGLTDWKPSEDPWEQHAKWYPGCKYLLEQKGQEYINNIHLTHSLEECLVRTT
Entries annotated with measured IC50

chem-smiles	IC50
C[C@@H]1CN(CC(=O)N2CC(C)(C)c3[nH]c(=O)c(Cc4ccc(F)cc4)cc32)[C@@H](CN2CCO[C@H](C(=O)N(C)CCCCCCN(C)C(=O)[C@@H]3CN(C[C@H]4CN[C@H](C)CN4CC(=O)N4CC(C)(C)c5[nH]c(=O)c(Cc6ccc(F)cc6)cc54)CCO3)C2)CN1	7.94 to 15.8 nM
C[C@@H]1CN(CC(=O)N2CC(C)(C)c3[nH]c(=O)c(Cc4ccc(F)cc4)cc32)[C@@H](CN2CCC(CCCC3CCN(C[C@H]4CN[C@H](C)CN4CC(=O)N4CC(C)(C)c5[nH]c(=O)c(Cc6ccc(F)cc6)cc54)CC3)CC2)CN1	15.8 to 31.6 nM
C[C@@H]1CN(CC(=O)N2CC(C)(C)c3[nH]c(=O)c(Cc4ccc(F)cc4)cc32)[C@@H](CN2CCC(CNC(=O)Cc3ccc(CC(=O)NCC4CCN(C[C@H]5CN[C@H](C)CN5CC(=O)N5CC(C)(C)c6[nH]c(=O)c(Cc7ccc(F)cc7)cc65)CC4)cc3)CC2)CN1	7.94 to 15.8 nM
C[C@@H]1CN(CC(=O)N2CC(C)(C)c3[nH]c(=O)c(Cc4ccc(F)cc4)cc32)[C@@H](CN2CCO[C@H](COc3ccc(Oc4cccc(Oc5ccc(OC[C@@H]6CN(C[C@H]7CN[C@H](C)CN7CC(=O)N7CC(C)(C)c8[nH]c(=O)c(Cc9ccc(F)cc9)cc87)CCO6)cc5)c4)cc3)C2)CN1	31.6 to 501 nM

---

target: cIAP2-BIR3 (Homo sapiens (Human), UniProt Q13489); assay: BIR binding assay (FRET competition), cIAP2 BIR3; details: fold separation (FS) for cIAP2
Sequence (Q13489 238-349): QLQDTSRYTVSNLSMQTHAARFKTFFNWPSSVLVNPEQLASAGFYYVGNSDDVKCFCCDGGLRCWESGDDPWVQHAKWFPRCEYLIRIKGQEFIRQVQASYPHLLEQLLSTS
assay-metric: cIAP2 BIR3 vs BIR2 separation window

chem-smiles	assay-metric	experimental-result
C[C@@H]1CN(CC(=O)N2CC(C)(C)c3[nH]c(=O)c(Oc4ccccc4)cc32)[C@@H](CN2CCO[C@H](C(=O)NCc3ccc(CNC(=O)[C@@H]4CN(C[C@H]5CN[C@H](C)CN5CC(=O)N5CC(C)(C)c6[nH]c(=O)c(Oc7ccccc7)cc65)CCO4)cc3)C2)CN1	cIAP2 BIR3 vs BIR2 separation window	++++ (FS>10,000)
C[C@@H]1CN(CC(=O)N2CC(C)(C)c3[nH]c(=O)c(Cc4ccc(F)cc4)cc32)[C@@H](CN2CCO[C@H](C(=O)NCCNC(=O)[C@@H]3CN(C[C@H]4CN[C@H](C)CN4CC(=O)N4CC(C)(C)c5[nH]c(=O)c(Cc6ccc(F)cc6)cc54)CCO3)C2)CN1	cIAP2 BIR3 vs BIR2 separation window	+++ (10,000>FS>1,000)
C[C@@H]1CN(CC(=O)N2CC(C)(C)c3[nH]c(=O)c(Cc4ccc(F)cc4)cc32)[C@@H](CN2CCN(C(=O)c3ccc4cc(C(=O)N5CCN(C[C@H]6CN[C@H](C)CN6CC(=O)N6CC(C)(C)c7[nH]c(=O)c(Cc8ccc(F)cc8)cc76)[C@H](C)C5)ccc4c3)C[C@H]2C)CN1	cIAP2 BIR3 vs BIR2 separation window	+++ (10,000>FS>1,000)
C[C@@H]1CN(CC(=O)N2CC(C)(C)c3[nH]c(=O)c(Cc4ccc(F)cc4)cc32)[C@@H](CN2CCC[C@H](NC(=O)Cc3ccc(CC(=O)N[C@H]4CCCN(C[C@H]5CN[C@H](C)CN5CC(=O)N5CC(C)(C)c6[nH]c(=O)c(Cc7ccc(F)cc7)cc65)C4)cc3)C2)CN1	cIAP2 BIR3 vs BIR2 separation window	+++ (10,000>FS>1,000)
C[C@@H]1CN(CC(=O)N2CC(C)(C)c3[nH]c(=O)c(Cc4ccc(F)cc4)cc32)[C@@H](CN2CCC(CNC(=O)Cc3ccc(CC(=O)NCC4CCN(C[C@H]5CN[C@H](C)CN5CC(=O)N5CC(C)(C)c6[nH]c(=O)c(Cc7ccc(F)cc7)cc65)CC4)cc3)CC2)CN1	cIAP2 BIR3 vs BIR2 separation window	++++ (FS>10,000)
C[C@@H]1CN(CC(=O)N2CC(C)(C)c3[nH]c(=O)c(Cc4ccc(F)cc4)cc32)[C@@H](CN2CCO[C@@H](COCCCCOC[C@H]3CN(C[C@H]4CN[C@H](C)CN4CC(=O)N4CC(C)(C)c5[nH]c(=O)c(Cc6ccc(F)cc6)cc54)CCO3)C2)CN1	cIAP2 BIR3 vs BIR2 separation window	+++ (10,000>FS>1,000)
C[C@@H]1CN(CC(=O)N2CC(C)(C)c3[nH]c(=O)c(Cc4ccc(F)cc4)cc32)[C@@H](CN2CCO[C@H](C(=O)NCCCN(C)C(=O)[C@@H]3CN(C[C@H]4CN[C@H](C)CN4CC(=O)N4CC(C)(C)c5[nH]c(=O)c(Cc6ccc(F)cc6)cc54)CCO3)C2)CN1	cIAP2 BIR3 vs BIR2 separation window	+++ (10,000>FS>1,000)
C[C@@H]1CN(CC(=O)N2CC(C)(C)c3[nH]c(=O)c(Cc4ccc(F)cc4)cc32)[C@@H](CN2CCO[C@H](COc3cccc(OC[C@@H]4CN(C[C@H]5CN[C@H](C)CN5CC(=O)N5CC(C)(C)c6[nH]c(=O)c(Cc7ccc(F)cc7)cc65)CCO4)c3Br)C2)CN1	cIAP2 BIR3 vs BIR2 separation window	+++ (10,000>FS>1,000)
C[C@@H]1CN(CC(=O)N2CC(C)(C)c3[nH]c(=O)c(Cc4ccc(F)cc4)cc32)[C@@H](CN2CCO[C@H](C(=O)NCC(C)(C)CNC(=O)[C@@H]3CN(C[C@H]4CN[C@H](C)CN4CC(=O)N4CC(C)(C)c5[nH]c(=O)c(Cc6ccc(F)cc6)cc54)CCO3)C2)CN1	cIAP2 BIR3 vs BIR2 separation window	+++ (10,000>FS>1,000)
C[C@@H]1CN(CC(=O)N2CC(C)(C)c3[nH]c(=O)c(Cc4ccc(F)cc4)cc32)[C@@H](CN2CCC[C@@H](NC(=O)CCCCCCC(=O)N[C@@H]3CCCN(C[C@H]4CN[C@H](C)CN4CC(=O)N4CC(C)(C)c5[nH]c(=O)c(Cc6ccc(F)cc6)cc54)C3)C2)CN1	cIAP2 BIR3 vs BIR2 separation window	++++ (FS>10,000)
C[C@@H]1CN(CC(=O)N2CC(C)(C)c3[nH]c(=O)c(Cc4ccc(F)cc4)cc32)[C@@H](CN2CCC(COc3cccc(OCC4CCN(C[C@H]5CN[C@H](C)CN5CC(=O)N5CC(C)(C)c6[nH]c(=O)c(Cc7ccc(F)cc7)cc65)CC4)c3)CC2)CN1	cIAP2 BIR3 vs BIR2 separation window	++++ (FS>10,000)
C[C@@H]1CN(CC(=O)N2CC(C)(C)c3[nH]c(=O)c(Cc4ccc(F)cc4)cc32)[C@@H](CN2CCO[C@H](C(=O)NCc3cccc(CNC(=O)[C@@H]4CN(C[C@H]5CN[C@H](C)CN5CC(=O)N5CC(C)(C)c6[nH]c(=O)c(Cc7ccc(F)cc7)cc65)CCO4)c3)C2)CN1	cIAP2 BIR3 vs BIR2 separation window	+++ (10,000>FS>1,000)
C[C@@H]1CN(CC(=O)N2CC(C)(C)c3[nH]c(=O)c(Cc4ccc(F)cc4)cc32)[C@@H](CN2CCC[C@H](NC(=O)Cc3cccc(CC(=O)N[C@H]4CCCN(C[C@H]5CN[C@H](C)CN5CC(=O)N5CC(C)(C)c6[nH]c(=O)c(Cc7ccc(F)cc7)cc65)C4)c3)C2)CN1	cIAP2 BIR3 vs BIR2 separation window	+++ (10,000>FS>1,000)

---

pIC50 overview
molecular target: cIAP1-BIR3 (Homo sapiens (Human), UniProt Q13490); assay: BIR binding assay (FRET competition), cIAP1 BIR3
Sequence (Q13490 253-363): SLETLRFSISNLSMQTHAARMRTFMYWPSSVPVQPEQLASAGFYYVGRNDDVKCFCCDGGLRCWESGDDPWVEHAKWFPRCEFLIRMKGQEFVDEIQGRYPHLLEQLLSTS
pIC50: −log10 of the molar value.
assay-metric: pIC50

molecule	test-target	experimental-result
Cc1c(NC(=O)[C@@H]2CN(C[C@H]3CN[C@H](C)CN3CC(=O)N3CC(C)(C)c4[nH]c(=O)c(Cc5ccc(F)cc5)cc43)CCO2)cccc1NC(=O)[C@@H]1CN(C[C@H]2CN[C@H](C)CN2CC(=O)N2CC(C)(C)c3[nH]c(=O)c(Cc4ccc(F)cc4)cc32)CCO1 [Compound 141]	cIAP1-BIR3 (Homo sapiens (Human), UniProt Q13490)	7.80 to 8.10
C[C@@H]1CN(CC(=O)N2CC(C)(C)c3[nH]c(=O)c(Cc4ccc(F)cc4C#N)cc32)[C@@H](CN2CCO[C@H](C(=O)NCc3ccc(CNC(=O)[C@@H]4CN(C[C@H]5CN[C@H](C)CN5CC(=O)N5CC(C)(C)c6[nH]c(=O)c(Cc7ccc(F)cc7C#N)cc65)CCO4)cc3)C2)CN1 [Compound 179]	cIAP1-BIR3 (Homo sapiens (Human), UniProt Q13490)	7.50 to 7.80
